# Tested on: Cytosolic phospholipase A2 (Bos taurus)
# test.description: Inhibition of cPLA2 measuring Calcium ionophore A-23,187-induced arachidonic acid release from bovine platelets with HPLC/UV detection. at 3.3 uM concentration.
outcome.measure: inhibition (%)
Your answer should be a plain number; it is taken to be in %.

Use the examples below as a reference point.
[
  {
    "record.smiles": "CCCCCCCCCCCCCCCCCC(=O)c1c(C)c(CCC(=O)O)n(CCCCCC(=O)N(C)C)c1C",
    "experimental.value": 38
  },
  {
    "record.smiles": "CCCCCCCCCCCCCCCCCC(=O)c1c(C)c(CCC(=O)O)n(Cc2ccc(C#N)cc2)c1C",
    "experimental.value": 15
  },
  {
    "record.smiles": "CCCCCCCCCCCCCCCCCC(=O)c1c(C)c(CCC(=O)O)n(CCCCCCO)c1C",
    "experimental.value": 20
  }
]

The record that follows has no inhibition shown yet.
Asked: Endpoint output: inhibition of "CCCCCCCCCCCCCCCCCC(=O)c1c(C)c(CCC(=O)O)n(Cc2ccc(C(N)=O)cc2)c1C" . Value?
Given back: 44

----------
# Tested on: Cytosolic phospholipase A2 (Bos taurus)
# test.description: Inhibition of cPLA2 measuring Calcium ionophore A-23,187-induced arachidonic acid release from bovine platelets with HPLC/UV detection. at 3.3 uM concentration.
# inhibition annotations
Your answer should be a plain number; it is taken to be in %.

Asked: Endpoint output: inhibition of "CCCCCCCCCCCCCCCCCC(=O)c1c(C)c(CCC(=O)O)n(CCCCCCN(C)C)c1C" . Value?
Given back: 33

Asked: Endpoint output: inhibition of "CCCCCCCCCCCCCCCCCC(=O)c1c(C)c(CCC(=O)O)n(CCCCCC#N)c1C" . Value?
Given back: 40

Asked: Endpoint output: inhibition of "CCCCCCCCCCCCCCCCCC(=O)c1c(C)c(CCC(=O)O)n(Cc2ccc(OC)cc2)c1C" . Value?
Given back: 31
